Tested on: Neisseria gonorrhoeae
Test: Antimicrobial activity against Neisseria gonorrhoeae ATCC 49226 after 16 hrs by disk susceptibility test
Format: functional
What log10(MIC) was measured for each of the following?
Values reflect log10 of reported MIC (µg).

The compound listed as O=C1NCCc2cc(Br)c(O)c(c2)Oc2ccc(cc2Br)CCNC(=O)/C(=N\O)Cc2cc(Br)c(O)c(c2)Oc2c(Br)cc(cc2Br)C/C1=N/O shows log10(MIC) equal to 1.70

The measured log10(MIC) associated with O=C(NCCc1ccc(O)c(Br)c1)/C(Cc1ccc(O)c(Br)c1)=N\O reads 1.10

Looking up COc1ccc(C/C(=N/O)C(=O)NCCc2ccc(O)c(Br)c2)cc1Br , I found its log10(MIC) recorded as 0.80

The value of log10(MIC) measured for the compound NC(=O)C(=O)NCCc1ccc(O)c(Br)c1 turned out to be 1.00

Please fill in: log10(MIC) reported for O=C1N/C=C/c2ccc(c(Br)c2)Oc2cc(cc(Br)c2O)CCNC(=O)/C(=N/O)Cc2cc(Br)c(c(Br)c2)Oc2cc(cc(Br)c2O)C/C1=N\O = 1.10

Item: O=C(NCCc1ccc(O)c(Br)c1)/C(Cc1cc(Br)c(O)c(Oc2c(Br)cc(C/C(=N\O)C(=O)NCCc3ccc(O)c(Br)c3)cc2Br)c1)=N\O | log10(MIC): 1.70

Measured log10(MIC) of O=C(NCCc1ccc(O)c(Br)c1)/C(Cc1cc(Br)c(O)c(-c2cc(C/C(=N/O)C(=O)NCCc3ccc(O)c(Br)c3)cc(Br)c2O)c1)=N\O : -0.11

The reported value for O=C(NCCc1ccc(O)c(Br)c1)[C@@H](O)Cc1ccc(O)c(Br)c1 in terms of log10(MIC) is 1.70

get_value(item= O=C(NCCc1ccc(O)c(Br)c1)/C(Cc1cc(Br)c(O)c(Br)c1)=N\O , readout=log10(MIC)) returns 0.49

For record O=C(NCCc1ccc(O)c(Br)c1)/C(Cc1ccc(Oc2cc(C/C(=N/O)C(=O)NCCc3ccc(O)c(Br)c3)cc(Br)c2O)c(Br)c1)=N\O the listed log10(MIC) is 1.70
